This section presents compounds with their documented kinase still bound, per cent of control values.
SYSTEM_UNDER_TEST: ADCK3 (human) (UniProt Q8NI60)
Sequence (Q8NI60 whole entry, looked up): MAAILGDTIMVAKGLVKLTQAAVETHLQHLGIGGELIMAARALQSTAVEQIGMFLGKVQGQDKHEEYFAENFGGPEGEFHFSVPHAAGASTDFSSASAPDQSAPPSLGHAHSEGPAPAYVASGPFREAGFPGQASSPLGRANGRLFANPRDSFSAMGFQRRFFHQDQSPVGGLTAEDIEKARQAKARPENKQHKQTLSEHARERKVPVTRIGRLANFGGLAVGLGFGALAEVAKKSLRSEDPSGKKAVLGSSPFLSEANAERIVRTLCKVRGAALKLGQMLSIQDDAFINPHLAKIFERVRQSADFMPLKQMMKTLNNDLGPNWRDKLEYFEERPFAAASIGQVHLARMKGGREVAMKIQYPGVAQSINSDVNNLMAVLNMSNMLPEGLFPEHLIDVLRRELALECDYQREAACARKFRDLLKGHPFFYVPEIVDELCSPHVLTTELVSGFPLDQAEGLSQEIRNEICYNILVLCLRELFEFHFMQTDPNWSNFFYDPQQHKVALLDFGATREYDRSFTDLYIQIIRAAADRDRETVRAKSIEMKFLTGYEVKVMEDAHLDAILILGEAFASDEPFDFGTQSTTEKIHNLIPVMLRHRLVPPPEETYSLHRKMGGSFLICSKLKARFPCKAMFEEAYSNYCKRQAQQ
TEST: KINOMEscan competition binding
CONDITION_CONTEXT: compound 10.0 µM

| INPUT_SMILES | kinase still bound, per cent of control |
| --- | --- |
| COc1ccc(N(C(=O)Oc2c(C)cccc2C)c2ccnc(Nc3ccc(N4CCN(C)CC4)cc3)n2)c(OC)c1 | 26% |
| C[C@@H](Oc1cc(-c2cnn(C3CCNCC3)c2)cnc1N)c1c(Cl)ccc(F)c1Cl | 53% |
| NC(=O)Nc1cc(-c2cccc(F)c2)sc1C(=O)N[C@@H]1CCCNC1 | 93% |
| COc1cc2ncn(-c3cc(OCc4ccccc4C(F)(F)F)c(C(N)=O)s3)c2cc1OC | 61% |
| C=CC(=O)Nc1ccc(CN(C(=O)Nc2c(Cl)c(OC)cc(OC)c2Cl)c2cc(Nc3ccc(N4CCN(C)CC4)cc3)ncn2)cc1 | 100% |
| CCN(CC)CCCCNc1ncc2cc(-c3cc(OC)cc(OC)c3)c(NC(=O)NC(C)(C)C)nc2n1 | 100% |
| CN(C)C/C=C/C(=O)Nc1ccc(C(=O)Nc2cccc(Nc3nccc(-c4cccnc4)n3)c2)cc1 | 100% |
| COCC(=O)NC/C=C/c1ccc2ncnc(Nc3ccc(Oc4ccc(C)nc4)c(C)c3)c2c1 | 100% |
| CS(=O)(=O)N1CCN(Cc2cc3nc(-c4cccc5[nH]ncc45)nc(N4CCOCC4)c3s2)CC1 | 100% |
| C=CC(=O)Nc1cc(-n2c(=O)ccc3cnc4ccc(-c5cn[nH]c5)cc4c32)ccc1C | 91% |
| CNC(=O)c1ccc(Nc2cc(Nc3ccccc3S(=O)(=O)C(C)C)c3cc[nH]c3n2)nc1 | 100% |
| COc1cc2ncnc(-n3nc(-c4ccccn4)nc3N)c2cc1OC | 10% |
| COc1cc(N2CCN(C)CC2)ccc1Nc1ncc2c(n1)N(C)c1ccccc1C(=O)N2C | 100% |
| N#CCNC(=O)c1ccc(-c2ccnc(Nc3ccc(N4CCOCC4)cc3)n2)cc1 | 90% |
| O=C(Nc1cccc(Nc2ncc(Br)c(NCCc3cnc[nH]3)n2)c1)N1CCCC1 | 100% |
| CCN1CCN(C(=O)Cc2ccc(Nc3ncc(F)c(Nc4ccc(C(=O)Nc5ccccc5Cl)cc4)n3)cc2)CC1 | 43% |
| O=C1NC(=O)/C(=C/c2ccc3nccc(-c4ccncc4)c3c2)S1 | 93% |
| CNC(=O)c1cc(Oc2ccc(NC(=O)Nc3ccc(Cl)c(C(F)(F)F)c3)cc2)ccn1 | 100% |
| O=c1cc(N2CCOCC2)oc2c(-c3cccc4c3sc3ccccc34)cccc12 | 72% |
| COc1cc(C(=O)N2CCC(N3CCN(C)CC3)CC2)ccc1Nc1ncc2c(n1)N(C)c1ccccc1C(=O)N2C | 71% |
| CCN(CC)CCCCNc1ncc2c(n1)N(C)C(=O)N(c1c(Cl)c(OC)cc(OC)c1Cl)C2 | 100% |
| Cc1n[nH]c2ccc(-c3cncc(OC[C@@H](N)Cc4c[nH]c5ccccc45)c3)cc12 | 100% |

---

SYSTEM_UNDER_TEST: PLK4 (human)
TEST: KINOMEscan competition binding
CONDITION_CONTEXT: compound 10.0 µM
ASSAY_ENDPOINT: kinase still bound, per cent of control (%)

| INPUT_SMILES | U | OBSERVED |
| --- | --- | --- |
| C=CC(=O)Nc1ccc(CN(C(=O)Nc2c(Cl)c(OC)cc(OC)c2Cl)c2cc(Nc3ccc(N4CCN(C)CC4)cc3)ncn2)cc1 | % | 100 |
| COc1ccc(N(C(=O)Oc2c(C)cccc2C)c2ccnc(Nc3ccc(N4CCN(C)CC4)cc3)n2)c(OC)c1 | % | 37 |
| O=C1NC(=O)/C(=C/c2ccc3nccc(-c4ccncc4)c3c2)S1 | % | 40 |
| CCN(CC)CCCCNc1ncc2c(n1)N(C)C(=O)N(c1c(Cl)c(OC)cc(OC)c1Cl)C2 | % | 100 |

---

This section presents compounds with their documented kinase still bound, per cent of control values.
SYSTEM_UNDER_TEST: CDK19 (human) (UniProt Q9BWU1)
Sequence (Q9BWU1 whole entry, looked up): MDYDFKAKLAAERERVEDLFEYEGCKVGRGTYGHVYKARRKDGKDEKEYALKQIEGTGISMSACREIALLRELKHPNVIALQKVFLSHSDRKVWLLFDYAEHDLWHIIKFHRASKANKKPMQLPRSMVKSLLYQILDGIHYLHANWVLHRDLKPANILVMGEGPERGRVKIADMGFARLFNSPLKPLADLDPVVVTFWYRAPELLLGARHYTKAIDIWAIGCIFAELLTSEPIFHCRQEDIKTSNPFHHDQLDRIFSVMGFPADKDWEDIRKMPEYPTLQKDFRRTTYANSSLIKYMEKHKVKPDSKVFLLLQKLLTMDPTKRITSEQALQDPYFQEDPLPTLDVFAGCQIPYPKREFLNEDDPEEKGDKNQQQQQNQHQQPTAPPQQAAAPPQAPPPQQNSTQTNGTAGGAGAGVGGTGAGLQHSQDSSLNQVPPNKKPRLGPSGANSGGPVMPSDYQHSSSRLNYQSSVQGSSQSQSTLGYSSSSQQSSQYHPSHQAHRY
TEST: KINOMEscan competition binding
CONDITION_CONTEXT: compound 10.0 µM

| INPUT_SMILES | kinase still bound, per cent of control [%] |
| --- | --- |
| COc1cc2ncnc(-n3nc(-c4ccccn4)nc3N)c2cc1OC | 100 |
| O=C(Nc1cccc(Nc2ncc(Br)c(NCCc3cnc[nH]3)n2)c1)N1CCCC1 | 100 |
| N#CCNC(=O)c1ccc(-c2ccnc(Nc3ccc(N4CCOCC4)cc3)n2)cc1 | 100 |
| C=CC(=O)Nc1cc(-n2c(=O)ccc3cnc4ccc(-c5cn[nH]c5)cc4c32)ccc1C | 100 |
| CCN(CC)CCCCNc1ncc2c(n1)N(C)C(=O)N(c1c(Cl)c(OC)cc(OC)c1Cl)C2 | 100 |
| Cc1n[nH]c2ccc(-c3cncc(OC[C@@H](N)Cc4c[nH]c5ccccc45)c3)cc12 | 0.5 |
| CN(C)C/C=C/C(=O)Nc1ccc(C(=O)Nc2cccc(Nc3nccc(-c4cccnc4)n3)c2)cc1 | 100 |
| COc1cc2ncn(-c3cc(OCc4ccccc4C(F)(F)F)c(C(N)=O)s3)c2cc1OC | 100 |
| O=C1NC(=O)/C(=C/c2ccc3nccc(-c4ccncc4)c3c2)S1 | 4.2 |
| CCN(CC)CCCCNc1ncc2cc(-c3cc(OC)cc(OC)c3)c(NC(=O)NC(C)(C)C)nc2n1 | 100 |
| CCN1CCN(C(=O)Cc2ccc(Nc3ncc(F)c(Nc4ccc(C(=O)Nc5ccccc5Cl)cc4)n3)cc2)CC1 | 76 |
| COc1cc(N2CCN(C)CC2)ccc1Nc1ncc2c(n1)N(C)c1ccccc1C(=O)N2C | 100 |
| CS(=O)(=O)N1CCN(Cc2cc3nc(-c4cccc5[nH]ncc45)nc(N4CCOCC4)c3s2)CC1 | 100 |

---

SYSTEM_UNDER_TEST: LTK (human) (UniProt P29376)
Sequence (P29376 whole entry, looked up): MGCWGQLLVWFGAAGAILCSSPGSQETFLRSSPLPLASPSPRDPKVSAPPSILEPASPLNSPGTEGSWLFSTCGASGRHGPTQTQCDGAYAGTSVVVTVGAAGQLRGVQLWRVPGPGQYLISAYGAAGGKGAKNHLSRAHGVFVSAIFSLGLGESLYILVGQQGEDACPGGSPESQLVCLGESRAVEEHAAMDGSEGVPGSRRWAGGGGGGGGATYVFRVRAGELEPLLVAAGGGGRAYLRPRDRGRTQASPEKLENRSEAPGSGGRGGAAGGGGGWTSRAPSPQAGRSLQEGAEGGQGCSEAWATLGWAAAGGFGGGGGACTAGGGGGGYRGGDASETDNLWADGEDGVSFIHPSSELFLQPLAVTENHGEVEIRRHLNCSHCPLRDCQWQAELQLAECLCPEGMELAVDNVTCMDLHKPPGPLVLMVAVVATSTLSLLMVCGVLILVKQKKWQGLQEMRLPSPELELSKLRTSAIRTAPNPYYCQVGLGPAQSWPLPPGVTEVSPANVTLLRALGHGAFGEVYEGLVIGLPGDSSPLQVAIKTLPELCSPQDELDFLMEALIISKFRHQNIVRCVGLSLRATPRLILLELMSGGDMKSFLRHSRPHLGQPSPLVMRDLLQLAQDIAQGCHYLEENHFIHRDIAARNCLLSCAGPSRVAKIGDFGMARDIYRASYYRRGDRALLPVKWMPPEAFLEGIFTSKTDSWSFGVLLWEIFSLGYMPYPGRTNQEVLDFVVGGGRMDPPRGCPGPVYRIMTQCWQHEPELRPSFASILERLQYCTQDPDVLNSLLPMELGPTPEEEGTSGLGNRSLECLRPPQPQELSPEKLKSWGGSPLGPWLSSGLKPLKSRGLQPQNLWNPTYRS
TEST: KINOMEscan competition binding
CONDITION_CONTEXT: compound 10.0 µM

| INPUT_SMILES | kinase still bound, per cent of control (%) |
| --- | --- |
| CNC(=O)c1ccc(Nc2cc(Nc3ccccc3S(=O)(=O)C(C)C)c3cc[nH]c3n2)nc1 | 0 |
| CCN1CCN(C(=O)Cc2ccc(Nc3ncc(F)c(Nc4ccc(C(=O)Nc5ccccc5Cl)cc4)n3)cc2)CC1 | 32 |
| COc1cc2ncn(-c3cc(OCc4ccccc4C(F)(F)F)c(C(N)=O)s3)c2cc1OC | 100 |
| CNC(=O)c1cc(Oc2ccc(NC(=O)Nc3ccc(Cl)c(C(F)(F)F)c3)cc2)ccn1 | 88 |

---

This section presents compounds with their documented kinase still bound, per cent of control values.
SYSTEM_UNDER_TEST: EPHA6 (human) (UniProt Q9UF33)
Sequence (Q9UF33 whole entry, looked up): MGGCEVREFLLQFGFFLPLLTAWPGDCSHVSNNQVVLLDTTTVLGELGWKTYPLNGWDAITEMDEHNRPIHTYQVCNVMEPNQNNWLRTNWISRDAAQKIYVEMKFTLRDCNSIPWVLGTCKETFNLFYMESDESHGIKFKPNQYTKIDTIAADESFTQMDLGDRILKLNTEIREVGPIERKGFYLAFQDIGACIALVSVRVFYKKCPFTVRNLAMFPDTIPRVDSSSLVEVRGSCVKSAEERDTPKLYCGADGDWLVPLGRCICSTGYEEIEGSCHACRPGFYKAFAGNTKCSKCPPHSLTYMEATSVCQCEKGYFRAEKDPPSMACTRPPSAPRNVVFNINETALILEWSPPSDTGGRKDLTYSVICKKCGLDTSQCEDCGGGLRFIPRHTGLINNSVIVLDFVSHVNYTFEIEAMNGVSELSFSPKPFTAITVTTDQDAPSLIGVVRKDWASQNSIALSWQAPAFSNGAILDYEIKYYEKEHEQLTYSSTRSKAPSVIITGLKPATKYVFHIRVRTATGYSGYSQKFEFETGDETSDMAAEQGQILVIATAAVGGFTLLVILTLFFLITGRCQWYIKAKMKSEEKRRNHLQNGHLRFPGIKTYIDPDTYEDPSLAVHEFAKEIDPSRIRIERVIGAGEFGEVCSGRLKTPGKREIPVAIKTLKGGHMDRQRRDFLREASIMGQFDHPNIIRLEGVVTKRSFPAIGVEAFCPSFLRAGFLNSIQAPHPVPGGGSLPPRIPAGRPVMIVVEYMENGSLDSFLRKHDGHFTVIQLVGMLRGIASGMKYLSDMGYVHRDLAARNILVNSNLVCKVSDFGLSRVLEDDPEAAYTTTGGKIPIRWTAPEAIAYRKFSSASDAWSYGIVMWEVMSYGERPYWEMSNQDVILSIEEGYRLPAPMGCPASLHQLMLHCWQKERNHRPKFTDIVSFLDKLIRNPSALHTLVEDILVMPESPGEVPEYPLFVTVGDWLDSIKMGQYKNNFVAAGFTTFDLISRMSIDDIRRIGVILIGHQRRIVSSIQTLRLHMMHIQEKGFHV
TEST: KINOMEscan competition binding
CONDITION_CONTEXT: compound 10.0 µM

| INPUT_SMILES | kinase still bound, per cent of control |
| --- | --- |
| COc1ccc(N(C(=O)Oc2c(C)cccc2C)c2ccnc(Nc3ccc(N4CCN(C)CC4)cc3)n2)c(OC)c1 | 0% |
| O=C(Nc1cccc(Nc2ncc(Br)c(NCCc3cnc[nH]3)n2)c1)N1CCCC1 | 54% |
| N#CCNC(=O)c1ccc(-c2ccnc(Nc3ccc(N4CCOCC4)cc3)n2)cc1 | 98% |
| COc1cc(C(=O)N2CCC(N3CCN(C)CC3)CC2)ccc1Nc1ncc2c(n1)N(C)c1ccccc1C(=O)N2C | 89% |
| CCN(CC)CCCCNc1ncc2cc(-c3cc(OC)cc(OC)c3)c(NC(=O)NC(C)(C)C)nc2n1 | 100% |
| CN(C)C/C=C/C(=O)Nc1ccc(C(=O)Nc2cccc(Nc3nccc(-c4cccnc4)n3)c2)cc1 | 90% |
| C[C@@H](Oc1cc(-c2cnn(C3CCNCC3)c2)cnc1N)c1c(Cl)ccc(F)c1Cl | 0.7% |
| COc1cc(N2CCN(C)CC2)ccc1Nc1ncc2c(n1)N(C)c1ccccc1C(=O)N2C | 100% |
| O=C1NC(=O)/C(=C/c2ccc3nccc(-c4ccncc4)c3c2)S1 | 83% |

---

SYSTEM_UNDER_TEST: UniProt P51451
Sequence (P51451 whole entry, looked up): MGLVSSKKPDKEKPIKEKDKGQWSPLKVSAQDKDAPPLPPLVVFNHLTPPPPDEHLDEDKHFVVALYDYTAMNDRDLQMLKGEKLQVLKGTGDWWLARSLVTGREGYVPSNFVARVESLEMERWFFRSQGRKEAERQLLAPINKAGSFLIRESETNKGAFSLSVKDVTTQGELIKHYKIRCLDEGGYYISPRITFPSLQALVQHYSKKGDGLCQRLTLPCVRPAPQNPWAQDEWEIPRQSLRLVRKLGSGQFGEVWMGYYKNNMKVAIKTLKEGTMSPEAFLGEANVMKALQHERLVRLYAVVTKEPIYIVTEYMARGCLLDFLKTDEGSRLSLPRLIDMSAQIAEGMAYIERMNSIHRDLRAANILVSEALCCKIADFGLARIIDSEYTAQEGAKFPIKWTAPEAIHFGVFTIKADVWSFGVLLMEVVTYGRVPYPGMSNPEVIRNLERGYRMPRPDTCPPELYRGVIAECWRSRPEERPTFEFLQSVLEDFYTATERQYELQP
TEST: KINOMEscan competition binding
CONDITION_CONTEXT: compound 10.0 µM

| INPUT_SMILES | kinase still bound, per cent of control (%) |
| --- | --- |
| CS(=O)(=O)N1CCN(Cc2cc3nc(-c4cccc5[nH]ncc45)nc(N4CCOCC4)c3s2)CC1 | 100 |
| C=CC(=O)Nc1ccc(CN(C(=O)Nc2c(Cl)c(OC)cc(OC)c2Cl)c2cc(Nc3ccc(N4CCN(C)CC4)cc3)ncn2)cc1 | 0.1 |
| NC(=O)Nc1cc(-c2cccc(F)c2)sc1C(=O)N[C@@H]1CCCNC1 | 0 |
| CNC(=O)c1ccc(Nc2cc(Nc3ccccc3S(=O)(=O)C(C)C)c3cc[nH]c3n2)nc1 | 0.55 |
| COc1ccc(N(C(=O)Oc2c(C)cccc2C)c2ccnc(Nc3ccc(N4CCN(C)CC4)cc3)n2)c(OC)c1 | 0.05 |
| CNC(=O)c1cc(Oc2ccc(NC(=O)Nc3ccc(Cl)c(C(F)(F)F)c3)cc2)ccn1 | 31 |
| COc1cc2ncnc(-n3nc(-c4ccccn4)nc3N)c2cc1OC | 8.8 |
| CN(C)C/C=C/C(=O)Nc1ccc(C(=O)Nc2cccc(Nc3nccc(-c4cccnc4)n3)c2)cc1 | 100 |
| N#CCNC(=O)c1ccc(-c2ccnc(Nc3ccc(N4CCOCC4)cc3)n2)cc1 | 100 |
| COc1cc(N2CCN(C)CC2)ccc1Nc1ncc2c(n1)N(C)c1ccccc1C(=O)N2C | 100 |
| CCN(CC)CCCCNc1ncc2cc(-c3cc(OC)cc(OC)c3)c(NC(=O)NC(C)(C)C)nc2n1 | 100 |
| O=C1NC(=O)/C(=C/c2ccc3nccc(-c4ccncc4)c3c2)S1 | 77 |
| COc1cc(C(=O)N2CCC(N3CCN(C)CC3)CC2)ccc1Nc1ncc2c(n1)N(C)c1ccccc1C(=O)N2C | 97 |
| O=c1cc(N2CCOCC2)oc2c(-c3cccc4c3sc3ccccc34)cccc12 | 100 |
| COCC(=O)NC/C=C/c1ccc2ncnc(Nc3ccc(Oc4ccc(C)nc4)c(C)c3)c2c1 | 62 |
| CCN1CCN(C(=O)Cc2ccc(Nc3ncc(F)c(Nc4ccc(C(=O)Nc5ccccc5Cl)cc4)n3)cc2)CC1 | 28 |
| O=C(Nc1cccc(Nc2ncc(Br)c(NCCc3cnc[nH]3)n2)c1)N1CCCC1 | 0.6 |
| CCN(CC)CCCCNc1ncc2c(n1)N(C)C(=O)N(c1c(Cl)c(OC)cc(OC)c1Cl)C2 | 100 |
| C=CC(=O)Nc1cc(-n2c(=O)ccc3cnc4ccc(-c5cn[nH]c5)cc4c32)ccc1C | 2.4 |
